- Tested on: Platelet Agglutination of Rats
- method: Inhibitory effect on collagen-induced platelet agglutination of rats in vitro (platelet rich plasma)
- Type: cell-based
- reported-conditions: 10^-6 M, rat platelet rich plasma, read-out: in vitro Inhibitory ratio (platelet agglutination)
Catalogue of inhibition at 1 µM values
assay-metric: inhibition at 1 µM (%)

compound | target-system | assay-value
c1coc(-c2nnc(-n3ccnc3)c3ccccc23)c1 [Example 46, 1-(1-imidazolyl)-4-(2-furyl)phthalazine] | Platelet Agglutination of Rats | 66.5
CCC(Nc1nnc(-c2ccccc2)c2ccsc12)c1ccccc1 (stereo not drawn) [Example 84] | Platelet Agglutination of Rats | 61.6
CC(Nc1nnc(-c2ccccc2)c2ccsc12)c1ccccc1Cl (stereo not drawn) [Example 86] | Platelet Agglutination of Rats | 90.2
Cc1cccc(C(C)Nc2nnc(-c3ccccc3)c3ccsc23)c1 (stereo not drawn) [Example 87] | Platelet Agglutination of Rats | 18
COc1ccccc1C(C)Nc1nnc(-c2ccccc2)c2ccsc12 (stereo not drawn) [Example 89] | Platelet Agglutination of Rats | 95.4
Cc1ccccc1-c1nnc(N[C@H](C)c2ccccc2)c2ccsc12 [Example 79] | Platelet Agglutination of Rats | 94.3
CC1(C)CC(Nc2nnc(C3CCCCC3)c3ccccc23)CC(C)(C)C1 [Example 5] | Platelet Agglutination of Rats | 51.8
c1ccc2c(C3CCCCC3)nnc(NC3CCCCC3)c2c1 [Example 3] | Platelet Agglutination of Rats | 100
CCCCC(Nc1nnc(-c2ccccc2)c2ccsc12)c1ccccc1 (stereo not drawn) [Example 85] | Platelet Agglutination of Rats | 40.7
